tested on: Polyketide synthase Pks13 (Mycobacterium tuberculosis (strain ATCC 25618 / H37Rv)), I6X8D2 [N1640S]; assay: Binding affinity to Mycobacterium tuberculosis Pks13-TE N1640S mutant expressed in Escherichia coli BL21(DE3) pLysS assessed as change in melting temperature at 1:10 compound to protein ratio by nanoDSF thermal stability analysis
# strict inequality: ΔTm < 10 °C yields 1, everything else yields 0

IN: Determine whether this compound shows ΔTm lower than 10 °C (ties excluded): `O=c1oc2cc(O)ccc2c2oc3ccc4c(c3c12)CN(C1CCCC1)CO4`
OUT: 0

IN: # strict comparison: is reported ΔTm < 10 °C? input = `O=c1oc2cc(O)ccc2c2oc3ccc(O)c(CN4CC[C@H](F)C4)c3c12`
OUT: 1

IN: Strictly below 10 °C in ΔTm? `O=c1oc2cc(O)ccc2c2oc3ccc(O)c(CN4CCC(F)CC4)c3c12`
OUT: 1

IN: For this compound, is ΔTm lower than 10 °C? `O=c1oc2cc(O)ccc2c2oc3ccc4c(c3c12)CN(CC1CC1)CO4`
OUT: 1

IN: Here's an entry: `COc1ccc2c(c1)oc(=O)c1c2oc2ccc(O)c(CN3CCC(F)(F)CC3)c21` . Is its ΔTm below 10 °C?
OUT: 1

IN: Hi there! Is ΔTm for `O=c1oc2cc(O)ccc2c2oc3ccc(O)c(CN4CCCCC4)c3c12` below 10 °C, do you know?
OUT: 0
